# System Name: panel of 442 kinases (Homo sapiens, UniProt P22607, G697C)
# Construct: purchased KINOMEscan
# Sequence (P22607 23-806 G697C): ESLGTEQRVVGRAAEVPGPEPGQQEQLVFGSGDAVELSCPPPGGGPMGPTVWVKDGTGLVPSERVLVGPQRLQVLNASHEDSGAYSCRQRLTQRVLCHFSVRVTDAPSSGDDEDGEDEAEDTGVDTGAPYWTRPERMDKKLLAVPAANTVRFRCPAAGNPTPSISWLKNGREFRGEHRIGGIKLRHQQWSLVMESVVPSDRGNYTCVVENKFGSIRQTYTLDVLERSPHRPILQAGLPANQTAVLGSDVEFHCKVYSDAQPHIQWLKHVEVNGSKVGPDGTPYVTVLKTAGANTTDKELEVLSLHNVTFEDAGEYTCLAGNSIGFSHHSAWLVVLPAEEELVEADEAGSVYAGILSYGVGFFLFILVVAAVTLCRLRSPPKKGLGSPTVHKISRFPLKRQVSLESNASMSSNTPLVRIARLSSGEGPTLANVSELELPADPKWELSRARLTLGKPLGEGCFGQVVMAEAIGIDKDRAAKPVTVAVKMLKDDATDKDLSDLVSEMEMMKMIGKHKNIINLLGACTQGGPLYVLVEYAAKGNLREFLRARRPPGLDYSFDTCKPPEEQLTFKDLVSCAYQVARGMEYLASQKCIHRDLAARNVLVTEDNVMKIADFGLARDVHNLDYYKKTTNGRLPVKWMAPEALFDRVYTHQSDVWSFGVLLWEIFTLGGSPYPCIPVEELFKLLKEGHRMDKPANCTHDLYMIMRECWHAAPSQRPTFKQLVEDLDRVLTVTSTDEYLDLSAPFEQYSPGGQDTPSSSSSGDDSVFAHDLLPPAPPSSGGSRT
# Format: binding
# Applied Conditions: Compound Concentration 10 µM
Recorded KINOMEscan: FGFR3(G697C), one value per entry.
Measured Endpoint: KINOMEscan: FGFR3(G697C)

# Compound Structure String, System Name, Measured Number
data = [
    ("COc1cc(C(=O)N2CCC(N3CCN(C)CC3)CC2)ccc1Nc1ncc2c(n1)N(C1CCCC1)c1ccccc1C(=O)N2C", "panel of 442 kinases (Homo sapiens, UniProt P22607, G697C)", 100),
    ("CCOc1cc(C(=O)N2CCC(N3CCN(C)CC3)CC2)ccc1Nc1ncc2c(n1)N(C1CCCC1)c1ccccc1C(=O)N2C", "panel of 442 kinases (Homo sapiens, UniProt P22607, G697C)", 100),
    ("COc1cc(C(=O)N2CCC(N3CCN(C)CC3)CC2)ccc1Nc1ncc2c(n1)N1CCc3cccc(c31)C(=O)N2C", "panel of 442 kinases (Homo sapiens, UniProt P22607, G697C)", 80),
    ("COc1cc(C(=O)N2CCC(N3CCN(C)CC3)CC2)ccc1Nc1ncc2c(n1)N(C)c1ccccc1C(=O)N2C", "panel of 442 kinases (Homo sapiens, UniProt P22607, G697C)", 85),
]

###

# System Name: panel of 442 kinases (Homo sapiens, UniProt Q15349)
# Construct: purchased KINOMEscan
# Assay type: binding
# Applied Conditions: kinase RSK3(Kin.Dom.1-N-terminal); compound concentration 10 µM
# Excerpt: We assessed the selectivity of members of this scaffold using the KINOMEscan methodology across a near comprehensive panel of 442 kinases [[18,27]].
Measured Endpoint: % Ctrl, RSK3(Kin.Dom.1-N-terminal) (% Ctrl)

# Compound Structure String, System Name, Measured Endpoint, Measured Number
measured = [
    ("COc1cc(C(=O)N2CCC(N3CCN(C)CC3)CC2)ccc1Nc1ncc2c(n1)N(C)c1ccccc1C(=O)N2C", "panel of 442 kinases (Homo sapiens, UniProt Q15349)", "% Ctrl, RSK3(Kin.Dom.1-N-terminal)", 83),
    ("COc1cc(C(=O)N2CCC(N3CCN(C)CC3)CC2)ccc1Nc1ncc2c(n1)N(C1CCCC1)c1ccccc1C(=O)N2C", "panel of 442 kinases (Homo sapiens, UniProt Q15349)", "% Ctrl, RSK3(Kin.Dom.1-N-terminal)", 100),
    ("CCOc1cc(C(=O)N2CCC(N3CCN(C)CC3)CC2)ccc1Nc1ncc2c(n1)N(C1CCCC1)c1ccccc1C(=O)N2C", "panel of 442 kinases (Homo sapiens, UniProt Q15349)", "% Ctrl, RSK3(Kin.Dom.1-N-terminal)", 100),
    ("COc1cc(C(=O)N2CCC(N3CCN(C)CC3)CC2)ccc1Nc1ncc2c(n1)N1CCc3cccc(c31)C(=O)N2C", "panel of 442 kinases (Homo sapiens, UniProt Q15349)", "% Ctrl, RSK3(Kin.Dom.1-N-terminal)", 100),
]

###

# System Name: panel of 442 kinases (Homo sapiens)
# Construct: purchased KINOMEscan
# Type: binding
# Applied Conditions: Compound Concentration 10 µM
Measured Endpoint: KINOMEscan: FGFR1

# Compound Structure String, Measured Number
data = [
    ("CCOc1cc(C(=O)N2CCC(N3CCN(C)CC3)CC2)ccc1Nc1ncc2c(n1)N(C1CCCC1)c1ccccc1C(=O)N2C", 100),
    ("COc1cc(C(=O)N2CCC(N3CCN(C)CC3)CC2)ccc1Nc1ncc2c(n1)N(C1CCCC1)c1ccccc1C(=O)N2C", 100),
    ("COc1cc(C(=O)N2CCC(N3CCN(C)CC3)CC2)ccc1Nc1ncc2c(n1)N1CCc3cccc(c31)C(=O)N2C", 83),
    ("COc1cc(C(=O)N2CCC(N3CCN(C)CC3)CC2)ccc1Nc1ncc2c(n1)N(C)c1ccccc1C(=O)N2C", 86),
]

###

# System Name: panel of 442 kinases (Homo sapiens, UniProt P42336, I800L)
# Construct: purchased KINOMEscan
# Sequence (P42336 whole entry I800L): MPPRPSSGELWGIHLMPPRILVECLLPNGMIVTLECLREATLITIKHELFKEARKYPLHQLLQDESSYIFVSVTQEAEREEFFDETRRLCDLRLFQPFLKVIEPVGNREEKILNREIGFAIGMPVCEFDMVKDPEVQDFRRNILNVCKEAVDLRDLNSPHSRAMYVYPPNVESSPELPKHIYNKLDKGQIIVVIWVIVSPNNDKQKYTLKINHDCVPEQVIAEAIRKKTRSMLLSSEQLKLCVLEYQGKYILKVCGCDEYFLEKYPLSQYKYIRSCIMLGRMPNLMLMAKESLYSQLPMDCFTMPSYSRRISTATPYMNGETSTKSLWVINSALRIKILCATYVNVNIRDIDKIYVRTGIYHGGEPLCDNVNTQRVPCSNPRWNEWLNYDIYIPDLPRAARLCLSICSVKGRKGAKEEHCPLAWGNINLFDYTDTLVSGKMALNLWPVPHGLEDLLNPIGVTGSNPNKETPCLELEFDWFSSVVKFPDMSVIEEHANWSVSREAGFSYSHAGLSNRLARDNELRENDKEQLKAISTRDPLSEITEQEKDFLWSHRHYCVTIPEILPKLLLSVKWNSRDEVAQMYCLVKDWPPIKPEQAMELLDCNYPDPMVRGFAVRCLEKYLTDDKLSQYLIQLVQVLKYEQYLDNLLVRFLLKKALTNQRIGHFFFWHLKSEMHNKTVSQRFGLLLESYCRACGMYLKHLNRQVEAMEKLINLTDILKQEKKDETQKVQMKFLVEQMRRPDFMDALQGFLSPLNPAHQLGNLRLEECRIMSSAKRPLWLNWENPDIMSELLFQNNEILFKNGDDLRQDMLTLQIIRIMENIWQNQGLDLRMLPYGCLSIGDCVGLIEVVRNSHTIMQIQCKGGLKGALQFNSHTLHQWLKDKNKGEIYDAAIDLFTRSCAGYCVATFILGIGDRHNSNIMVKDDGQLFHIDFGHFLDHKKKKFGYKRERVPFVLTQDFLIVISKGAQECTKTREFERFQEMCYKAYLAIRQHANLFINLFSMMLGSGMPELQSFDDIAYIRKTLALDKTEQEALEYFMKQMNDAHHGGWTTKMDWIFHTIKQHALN
# Assay type: binding
# Applied Conditions: Compound Concentration 10 µM
Measured Endpoint: KINOMEscan: PIK3CA(I800L)

# Compound Structure String, Measured Endpoint, Measured Number
data = [
    ("COc1cc(C(=O)N2CCC(N3CCN(C)CC3)CC2)ccc1Nc1ncc2c(n1)N1CCc3cccc(c31)C(=O)N2C", "KINOMEscan: PIK3CA(I800L)", 64),
    ("CCOc1cc(C(=O)N2CCC(N3CCN(C)CC3)CC2)ccc1Nc1ncc2c(n1)N(C1CCCC1)c1ccccc1C(=O)N2C", "KINOMEscan: PIK3CA(I800L)", 75),
    ("COc1cc(C(=O)N2CCC(N3CCN(C)CC3)CC2)ccc1Nc1ncc2c(n1)N(C1CCCC1)c1ccccc1C(=O)N2C", "KINOMEscan: PIK3CA(I800L)", 100),
    ("COc1cc(C(=O)N2CCC(N3CCN(C)CC3)CC2)ccc1Nc1ncc2c(n1)N(C)c1ccccc1C(=O)N2C", "KINOMEscan: PIK3CA(I800L)", 38),
]

###

# System Name: panel of 442 kinases (Homo sapiens, UniProt P07947)
# Construct: purchased KINOMEscan
# Type: binding
# Applied Conditions: kinase YES; compound concentration 10 µM
Measured % Ctrl, YES accompanies every entry in the list below.

# Compound Structure String, System Name, % Ctrl, YES, % Ctrl
records = [
    ("COc1cc(C(=O)N2CCC(N3CCN(C)CC3)CC2)ccc1Nc1ncc2c(n1)N(C)c1ccccc1C(=O)N2C", "panel of 442 kinases (Homo sapiens, UniProt P07947)", 100),
    ("COc1cc(C(=O)N2CCC(N3CCN(C)CC3)CC2)ccc1Nc1ncc2c(n1)N(C1CCCC1)c1ccccc1C(=O)N2C", "panel of 442 kinases (Homo sapiens, UniProt P07947)", 89),
    ("COc1cc(C(=O)N2CCC(N3CCN(C)CC3)CC2)ccc1Nc1ncc2c(n1)N1CCc3cccc(c31)C(=O)N2C", "panel of 442 kinases (Homo sapiens, UniProt P07947)", 100),
    ("CCOc1cc(C(=O)N2CCC(N3CCN(C)CC3)CC2)ccc1Nc1ncc2c(n1)N(C1CCCC1)c1ccccc1C(=O)N2C", "panel of 442 kinases (Homo sapiens, UniProt P07947)", 100),
]

###

// reported KINOMEscan: RET(M918T) per item
# System Name: panel of 442 kinases (Homo sapiens, UniProt P07949, M918T)
# Construct: purchased KINOMEscan
# Sequence (P07949 29-1114 M918T): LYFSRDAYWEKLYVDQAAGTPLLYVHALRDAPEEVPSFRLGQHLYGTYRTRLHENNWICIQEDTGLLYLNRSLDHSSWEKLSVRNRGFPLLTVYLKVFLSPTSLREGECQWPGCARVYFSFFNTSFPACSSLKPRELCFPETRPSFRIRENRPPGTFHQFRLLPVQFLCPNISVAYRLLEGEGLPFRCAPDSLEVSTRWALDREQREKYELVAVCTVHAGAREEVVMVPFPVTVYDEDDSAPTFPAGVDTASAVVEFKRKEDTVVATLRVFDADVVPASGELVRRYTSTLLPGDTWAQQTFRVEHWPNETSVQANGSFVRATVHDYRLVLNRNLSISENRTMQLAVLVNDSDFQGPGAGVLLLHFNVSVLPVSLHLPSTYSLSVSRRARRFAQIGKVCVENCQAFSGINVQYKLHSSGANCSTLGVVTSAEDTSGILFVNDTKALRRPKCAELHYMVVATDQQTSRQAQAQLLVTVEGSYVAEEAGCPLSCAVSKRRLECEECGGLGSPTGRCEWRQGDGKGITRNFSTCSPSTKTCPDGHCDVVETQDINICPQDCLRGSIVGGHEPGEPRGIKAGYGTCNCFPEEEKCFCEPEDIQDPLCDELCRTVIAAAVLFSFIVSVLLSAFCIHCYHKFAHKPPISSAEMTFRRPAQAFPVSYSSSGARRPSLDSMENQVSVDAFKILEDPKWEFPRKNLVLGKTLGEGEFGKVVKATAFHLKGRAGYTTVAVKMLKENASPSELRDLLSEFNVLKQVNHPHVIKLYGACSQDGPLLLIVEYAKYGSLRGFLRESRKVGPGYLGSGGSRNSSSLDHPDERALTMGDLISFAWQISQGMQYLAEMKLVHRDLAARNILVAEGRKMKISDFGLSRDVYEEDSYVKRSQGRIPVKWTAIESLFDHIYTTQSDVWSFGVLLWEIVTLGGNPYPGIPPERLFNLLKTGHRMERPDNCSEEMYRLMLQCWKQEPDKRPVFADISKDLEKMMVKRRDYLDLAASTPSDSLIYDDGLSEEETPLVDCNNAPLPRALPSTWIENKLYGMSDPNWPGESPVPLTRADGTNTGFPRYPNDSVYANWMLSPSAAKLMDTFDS
# Type: binding
# Applied Conditions: Compound Concentration 10 µM
Measured Endpoint: KINOMEscan: RET(M918T)

# Compound Structure String, Measured Number
rows = [
    ("CCOc1cc(C(=O)N2CCC(N3CCN(C)CC3)CC2)ccc1Nc1ncc2c(n1)N(C1CCCC1)c1ccccc1C(=O)N2C", 100),
    ("COc1cc(C(=O)N2CCC(N3CCN(C)CC3)CC2)ccc1Nc1ncc2c(n1)N(C)c1ccccc1C(=O)N2C", 100),
    ("COc1cc(C(=O)N2CCC(N3CCN(C)CC3)CC2)ccc1Nc1ncc2c(n1)N(C1CCCC1)c1ccccc1C(=O)N2C", 94),
    ("COc1cc(C(=O)N2CCC(N3CCN(C)CC3)CC2)ccc1Nc1ncc2c(n1)N1CCc3cccc(c31)C(=O)N2C", 81),
]

###

# System Name: panel of 442 kinases (Homo sapiens, UniProt Q05655)
# Construct: purchased KINOMEscan
# Sequence (Q05655 whole entry): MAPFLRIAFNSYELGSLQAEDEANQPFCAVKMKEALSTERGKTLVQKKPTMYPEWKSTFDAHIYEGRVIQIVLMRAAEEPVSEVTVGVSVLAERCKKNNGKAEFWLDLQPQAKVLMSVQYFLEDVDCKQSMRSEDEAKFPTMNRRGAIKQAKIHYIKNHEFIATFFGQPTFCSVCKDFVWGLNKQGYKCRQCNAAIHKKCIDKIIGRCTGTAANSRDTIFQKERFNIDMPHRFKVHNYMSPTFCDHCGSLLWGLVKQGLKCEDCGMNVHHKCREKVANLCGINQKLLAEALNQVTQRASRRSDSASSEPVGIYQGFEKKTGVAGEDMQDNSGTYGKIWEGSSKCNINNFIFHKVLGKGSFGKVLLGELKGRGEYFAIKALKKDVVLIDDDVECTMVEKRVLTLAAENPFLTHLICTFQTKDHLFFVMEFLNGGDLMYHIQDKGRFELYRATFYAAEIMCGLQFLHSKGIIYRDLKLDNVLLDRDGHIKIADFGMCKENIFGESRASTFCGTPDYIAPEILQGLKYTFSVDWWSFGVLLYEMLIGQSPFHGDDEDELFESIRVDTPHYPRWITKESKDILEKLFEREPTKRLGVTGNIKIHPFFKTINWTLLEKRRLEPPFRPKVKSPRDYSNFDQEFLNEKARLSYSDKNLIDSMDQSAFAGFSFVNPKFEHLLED
# Format: binding
# Applied Conditions: Compound Concentration 10 µM
Each item that follows carries a reported KINOMEscan: PRKCD.
Measured Endpoint: KINOMEscan: PRKCD

# Compound, System Name, Measured Number
measured = [
    ("COc1cc(C(=O)N2CCC(N3CCN(C)CC3)CC2)ccc1Nc1ncc2c(n1)N(C1CCCC1)c1ccccc1C(=O)N2C [Compound 25]", "panel of 442 kinases (Homo sapiens, UniProt Q05655)", 100),
    ("COc1cc(C(=O)N2CCC(N3CCN(C)CC3)CC2)ccc1Nc1ncc2c(n1)N(C)c1ccccc1C(=O)N2C [15 (LRRK2-IN-1)]", "panel of 442 kinases (Homo sapiens, UniProt Q05655)", 75),
    ("COc1cc(C(=O)N2CCC(N3CCN(C)CC3)CC2)ccc1Nc1ncc2c(n1)N1CCc3cccc(c31)C(=O)N2C [Compound 24]", "panel of 442 kinases (Homo sapiens, UniProt Q05655)", 67),
    ("CCOc1cc(C(=O)N2CCC(N3CCN(C)CC3)CC2)ccc1Nc1ncc2c(n1)N(C1CCCC1)c1ccccc1C(=O)N2C [Compound 26]", "panel of 442 kinases (Homo sapiens, UniProt Q05655)", 100),
]

###

Listed below: KINOMEscan: PIK3CA(H1047Y) values for each entry.
# System Name: panel of 442 kinases (Homo sapiens, UniProt P42336, H1047Y)
# Construct: purchased KINOMEscan
# Sequence (P42336 whole entry H1047Y): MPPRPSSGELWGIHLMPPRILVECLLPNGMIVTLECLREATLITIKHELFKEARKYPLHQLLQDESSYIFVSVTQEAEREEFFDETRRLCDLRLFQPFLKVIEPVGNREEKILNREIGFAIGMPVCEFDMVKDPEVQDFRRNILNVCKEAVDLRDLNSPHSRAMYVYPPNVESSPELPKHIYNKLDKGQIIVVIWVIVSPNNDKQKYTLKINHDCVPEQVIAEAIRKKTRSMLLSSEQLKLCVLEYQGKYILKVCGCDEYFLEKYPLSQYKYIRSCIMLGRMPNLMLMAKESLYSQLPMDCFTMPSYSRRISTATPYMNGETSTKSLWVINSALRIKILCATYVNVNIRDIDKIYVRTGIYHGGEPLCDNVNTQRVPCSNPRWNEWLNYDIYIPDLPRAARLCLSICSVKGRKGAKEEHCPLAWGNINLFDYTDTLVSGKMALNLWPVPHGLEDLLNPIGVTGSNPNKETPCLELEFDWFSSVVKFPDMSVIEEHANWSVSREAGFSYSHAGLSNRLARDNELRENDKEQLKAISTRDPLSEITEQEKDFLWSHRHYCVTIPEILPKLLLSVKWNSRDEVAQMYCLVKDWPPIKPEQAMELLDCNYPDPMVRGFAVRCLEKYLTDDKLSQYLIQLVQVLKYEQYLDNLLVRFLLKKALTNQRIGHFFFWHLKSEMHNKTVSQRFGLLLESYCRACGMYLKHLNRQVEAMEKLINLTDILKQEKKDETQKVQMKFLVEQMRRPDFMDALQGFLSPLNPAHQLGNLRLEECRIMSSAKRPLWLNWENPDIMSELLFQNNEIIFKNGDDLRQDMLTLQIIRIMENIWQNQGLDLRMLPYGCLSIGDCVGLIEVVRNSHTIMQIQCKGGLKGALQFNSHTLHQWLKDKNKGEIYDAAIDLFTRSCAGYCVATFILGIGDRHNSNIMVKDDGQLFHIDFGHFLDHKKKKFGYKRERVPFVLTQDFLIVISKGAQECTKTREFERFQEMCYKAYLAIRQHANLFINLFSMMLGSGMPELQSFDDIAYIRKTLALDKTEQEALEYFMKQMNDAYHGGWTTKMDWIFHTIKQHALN
# Type: binding
# Applied Conditions: Compound Concentration 10 µM
Measured Endpoint: KINOMEscan: PIK3CA(H1047Y)

# Compound Structure String, Measured Endpoint, Measured Number
records = [
    ("CCOc1cc(C(=O)N2CCC(N3CCN(C)CC3)CC2)ccc1Nc1ncc2c(n1)N(C1CCCC1)c1ccccc1C(=O)N2C", "KINOMEscan: PIK3CA(H1047Y)", 76),
    ("COc1cc(C(=O)N2CCC(N3CCN(C)CC3)CC2)ccc1Nc1ncc2c(n1)N(C)c1ccccc1C(=O)N2C", "KINOMEscan: PIK3CA(H1047Y)", 71),
    ("COc1cc(C(=O)N2CCC(N3CCN(C)CC3)CC2)ccc1Nc1ncc2c(n1)N(C1CCCC1)c1ccccc1C(=O)N2C", "KINOMEscan: PIK3CA(H1047Y)", 100),
    ("COc1cc(C(=O)N2CCC(N3CCN(C)CC3)CC2)ccc1Nc1ncc2c(n1)N1CCc3cccc(c31)C(=O)N2C", "KINOMEscan: PIK3CA(H1047Y)", 68),
]
